This collection of values is drawn from ChEMBL document CHEMBL2417548.

# subject of test: Histamine H3 receptor (Homo sapiens)
# assay comment: Antagonist activity at human histamine H3 receptor expressed in HEK293 cells assessed by forskolin induced cAMP response element activation after 5 hrs by luciferase reporter gene assay
# reported pIC50; entries follow
Scale for pIC50: -log10 of concentration given in mol/L; no unit attached.

Known pIC50 results, listed for orientation:
• O=C(Cc1c[nH]c2ccccc12)Oc1ccc(CN2CCOCC2)cc1 = 6.10
• O=C(Nc1ccc(CN2CCCCC2)cc1)c1c[nH]c2ccccc12 = 5.92
• O=C(Oc1ccc(CN2CCCCC2)cc1)c1c[nH]c2ccccc12 = 5.69
• c1ccc2c(CCNc3ccc(CN4CCCCC4)cc3)c[nH]c2c1 = 7.10
• CCN(CC)Cc1ccc(NCCc2c[nH]c3ccccc23)cc1 = 6.54

Query compound follows.
Please fill in: pIC50 reported for "c1ccc2c(CCCNc3ccc(CN4CCOCC4)cc3)c[nH]c2c1" = 6.31

* * *

# reported inhibition at 3 µM; entries follow
# subject of test: hERG (KCNH2) (Homo sapiens, UniProt Q12809)
# Sequence (Q12809 whole entry): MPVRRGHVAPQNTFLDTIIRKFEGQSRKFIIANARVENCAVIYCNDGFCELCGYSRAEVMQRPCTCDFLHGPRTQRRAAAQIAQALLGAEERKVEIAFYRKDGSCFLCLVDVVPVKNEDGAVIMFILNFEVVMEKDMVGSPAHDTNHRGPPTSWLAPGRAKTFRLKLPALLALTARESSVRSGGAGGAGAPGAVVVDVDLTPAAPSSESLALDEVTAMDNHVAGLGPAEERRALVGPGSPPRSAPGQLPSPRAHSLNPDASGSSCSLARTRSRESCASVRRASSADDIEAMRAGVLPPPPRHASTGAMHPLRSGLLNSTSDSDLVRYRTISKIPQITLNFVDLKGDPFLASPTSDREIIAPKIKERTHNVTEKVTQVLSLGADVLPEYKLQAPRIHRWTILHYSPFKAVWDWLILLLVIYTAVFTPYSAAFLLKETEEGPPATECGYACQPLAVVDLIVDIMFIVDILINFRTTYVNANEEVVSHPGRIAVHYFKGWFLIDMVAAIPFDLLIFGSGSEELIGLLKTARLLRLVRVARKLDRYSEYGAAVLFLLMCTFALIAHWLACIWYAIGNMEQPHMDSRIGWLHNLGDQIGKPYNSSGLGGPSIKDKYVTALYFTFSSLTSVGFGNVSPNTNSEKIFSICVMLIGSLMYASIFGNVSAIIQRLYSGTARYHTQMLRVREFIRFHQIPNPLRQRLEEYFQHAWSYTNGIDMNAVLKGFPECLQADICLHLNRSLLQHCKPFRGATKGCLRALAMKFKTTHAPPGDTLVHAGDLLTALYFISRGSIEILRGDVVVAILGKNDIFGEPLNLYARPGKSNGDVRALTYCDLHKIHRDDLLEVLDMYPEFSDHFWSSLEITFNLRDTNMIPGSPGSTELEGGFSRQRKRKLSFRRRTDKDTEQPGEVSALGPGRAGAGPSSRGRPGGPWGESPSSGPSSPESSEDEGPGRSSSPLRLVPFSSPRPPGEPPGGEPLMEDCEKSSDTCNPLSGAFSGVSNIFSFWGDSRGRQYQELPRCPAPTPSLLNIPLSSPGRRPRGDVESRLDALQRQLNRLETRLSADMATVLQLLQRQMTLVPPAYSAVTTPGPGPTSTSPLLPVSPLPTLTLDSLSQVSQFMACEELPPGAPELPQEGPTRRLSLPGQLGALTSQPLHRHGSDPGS
# assay comment: Inhibition of human ERG expressed in HEK293 cells assessed as membrane depolarization at 3 uM by patch-clamp method
# Type: cell-based
# particulars: HEK293 cells that express hERG
Please state the value followed by its unit.

Known inhibition at 3 µM results, listed for orientation:
- O=C(Cc1c[nH]c2ccccc12)Nc1ccc(CN2CCOCC2)cc1: 6%
- c1ccc2c(CCNc3ccc(CN4CCCC4)cc3)c[nH]c2c1: 73%
- c1ccc2c(CCNc3ccc(CN4CCOCC4)cc3)c[nH]c2c1: 54%
- O=C(Cc1c[nH]c2ccccc12)Oc1ccc(CN2CCOCC2)cc1: 12%

Please fill in: inhibition at 3 µM reported for "c1ccc2c(CCNc3ccc(CN4CCCCC4)cc3)c[nH]c2c1" = 87%

* * *

# subject of test: Histamine H3 receptor (Homo sapiens, UniProt Q9Y5N1)
# Sequence (Q9Y5N1 whole entry): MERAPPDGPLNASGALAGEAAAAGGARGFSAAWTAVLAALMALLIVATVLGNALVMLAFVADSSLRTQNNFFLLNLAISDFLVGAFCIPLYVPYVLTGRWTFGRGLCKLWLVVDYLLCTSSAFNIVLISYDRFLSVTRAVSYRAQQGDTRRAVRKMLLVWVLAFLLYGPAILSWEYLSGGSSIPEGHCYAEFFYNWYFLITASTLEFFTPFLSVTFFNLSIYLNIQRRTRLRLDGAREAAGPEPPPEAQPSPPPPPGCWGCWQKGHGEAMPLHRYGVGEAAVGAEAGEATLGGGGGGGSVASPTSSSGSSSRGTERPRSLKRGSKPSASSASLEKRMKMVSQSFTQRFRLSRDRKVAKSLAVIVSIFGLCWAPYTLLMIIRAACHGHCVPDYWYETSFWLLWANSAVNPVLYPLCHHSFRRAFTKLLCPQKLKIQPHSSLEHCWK
# assay comment: Antagonist activity at human histamine H3 receptor expressed in HEK293 cells assessed by forskolin induced cAMP response element activation after 5 hrs by luciferase reporter gene assay
# reported IC50; entries follow
Your answer should be a plain number; it is taken to be in µM.

- O=C(Cc1c[nH]c2ccccc12)Nc1ccc(CN2CCOCC2)cc1: 2.19
- CCN(CC)Cc1ccc(NC(=O)Cc2c[nH]c3ccccc23)cc1: 3.5
- c1ccc2c(CNc3ccc(CN4CCCCC4)cc3)c[nH]c2c1: 0.54

Please fill in: IC50 reported for "CCN(CC)Cc1ccc(OC(=O)Cc2c[nH]c3ccccc23)cc1" = 4.61

Please fill in: IC50 reported for "c1ccc2c(CCNc3ccc(CN4CCOCC4)cc3)c[nH]c2c1" = 0.049

Please fill in: IC50 reported for "O=C(Cc1c[nH]c2ccccc12)Oc1ccc(CN2CCCC2)cc1" = 2.46

* * *

# subject of test: Histamine H3 receptor (Homo sapiens, UniProt Q9Y5N1)
# assay comment: Antagonist activity at human histamine H3 receptor expressed in HEK293 cells assessed by forskolin induced cAMP response element activation after 5 hrs by luciferase reporter gene assay
measurement kind: IC50

• O=C(CCc1c[nH]c2ccccc12)Oc1ccc(CN2CCOCC2)cc1 = > 10 µM
• CCN(CC)Cc1ccc(OC(=O)CCc2c[nH]c3ccccc23)cc1 = > 10 µM
• O=C(CCc1c[nH]c2ccccc12)Nc1ccc(CN2CCCC2)cc1 = > 10 µM
• O=C(CCc1c[nH]c2ccccc12)Oc1ccc(CN2CCCC2)cc1 = > 10 µM
• O=C(CCc1c[nH]c2ccccc12)Oc1ccc(CN2CCCCC2)cc1 = > 10 µM

Please fill in: IC50 reported for "O=C(CCc1c[nH]c2ccccc12)Nc1ccc(CN2CCCCC2)cc1" = > 10 µM

Please fill in: IC50 reported for "CCN(CC)Cc1ccc(NC(=O)CCc2c[nH]c3ccccc23)cc1" = > 10 µM
